Biological target: T1, extracellular domain of human PRLR (monomeric, soluble) (human, UniProt P16471 25-234)
T1 construct: also called ECD-PRLR; ECD of PRLR
T1 sequence: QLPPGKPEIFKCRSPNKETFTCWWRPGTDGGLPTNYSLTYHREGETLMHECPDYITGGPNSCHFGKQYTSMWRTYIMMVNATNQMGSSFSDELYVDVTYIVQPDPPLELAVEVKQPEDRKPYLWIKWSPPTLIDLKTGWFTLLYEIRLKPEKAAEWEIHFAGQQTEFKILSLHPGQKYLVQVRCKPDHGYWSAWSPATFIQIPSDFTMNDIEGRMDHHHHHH
Test: SPR (Biacore), IgG1 directly immobilized, monomeric human PRLR ECD from HEK293 as analyte
measuredParameter: koff (s⁻¹)
Numbers only here, please. The scale is s⁻¹.

For record XHA06.983 (antibody, V domains shown, Novartis antibody (WO2008/022295)) VH: DVQLVESGGGLVQPGGSRKLSCAASGFAFSSFGMQWVRQAPEKGLEWVAYISSGSSTIYYADTVKGRFTISRDNPKNTLFLQMTSLRSEDTAMYYCVRSGRDYWGQGTSVTVSS VL: SIVMTQTPKFLLVSAGDRVTITCKASQGVSNDVAWFQQKPGQSPKLLIYSASTRYTGVPDRLTGSGYGTDFTFTINTVQAEDLAVYFCQQDYTSPTFGGGTKLEIKR the listed koff is 0.00017

Value source: patent US20130129739A1
